All values here come from patent US20210330611A1.

The entries below are paired with their reported inhibition at 10 µM.
- System: LPS-induced microglia activation
- assay.method.text: Image-based assay of LPS-induced microglia activation (HTS and dose response)
- Assay type: cell-based, rat
- experimental.parameters: Rattus norvegicus, Microglia, 48 h, primary microglia HTS, LPS stimulation; increased cell size (>800 μm^2) as marker of activation; read-out: LPS % inhibition
All answers are understood in %, so give the number only.

1. COc1ccc2[nH]cc(CCNC(C)=O)c2c1 [Melatonin]; -3

Exercise: For the compound C[C@H]1[C@H](OC(=O)CCC(=O)O)O[C@@H]2O[C@@]3(C)CC[C@H]4[C@H](C)CC[C@@H]1[C@@]24OO3 [Artesunate, reference compound] , report inhibition at 10 µM.
Key: 20

Exercise: Name the recorded inhibition at 10 µM of the item C[N+](C)(C)CCCCCC[N+](C)(C)C [Hexamethonium] in your answer.
Key: 100

Exercise: Recall and state the measured inhibition at 10 µM for O=C(O)c1cccnc1Nc1cccc(C(F)(F)F)c1 [Niflumic Acid] .
Key: 9

Exercise: Tell me its inhibition at 10 µM given C[C@]12C=CC(=O)C=C1CC[C@@H]1[C@@H]2[C@@H](O)C[C@@]2(C)[C@H]1CC[C@]2(O)C(=O)CO [Prednisolone, reference compound] as the entry.
Key: 100

* * *

Measured IC50 accompanies every entry in the list below.
- Test system: LPS-induced microglia activation
- assay.method.text: Image-based assay of LPS-induced microglia activation (HTS and dose response)
- Type: cell-based, rat
- experimental.parameters: Rattus norvegicus, Microglia, Table 3; read-out: LPS IC50 (uM) (Suppl. Table 7)
Structures can show the parent of a compound that is named as a salt.
Just the number please, in µM, no unit attached.

1. Cc1cccc(C)c1N=C1NCCCS1 [Xylazine hydrochloride, reference compound]; 8
2. CC(=O)OCC(=O)[C@@]1(O)[C@H](OC(C)=O)C[C@H]2[C@@H]3CCC4=CC(=O)C=C[C@]4(C)[C@@]3(F)[C@@H](O)C[C@@]21C [Triamcinolone diacetate, reference compound]; 0.8
3. O=P(O)(O)C(O)(Cn1ccnc1)P(=O)(O)O [Zoledronic acid, reference compound]; 8

Exercise: Report IC50 for C[C@H]1C[C@@H]2[C@H]([C@@H](O)C[C@@]3(C)[C@H]2CC[C@]3(O)C(=O)CO)[C@@]2(C)C=CC(=O)C=C12 [Methylprednisolone, reference compound]
Key: 0.02

* * *

Please consider the recorded LPS % cell toxicity for primary rat microglia in what follows.
The reply should consist of the numeric value with the unit placed after it.

Some compounds with recorded LPS % cell toxicity:
1) O=C(O)CN(CCN(CC(=O)O)CC(=O)O)CCN(CC(=O)O)CC(=O)O; 0%
2) O=C1c2cccc(O)c2C(=O)c2c(O)cccc21; 0%
3) NCC(O)CC(=O)O (centres unmarked) [Aminohydroxybutyric Acid]; 0%
4) NCC(CC(=O)O)c1ccc(Cl)cc1 (racemic) [(±)-baclofen, Baclofen]; 0%
5) Cn1c(=O)c2[nH]cnc2n(C)c1=O; 0%
6) O=C(O)/C=C\C(=O)O.O=C(O)/C=C\C(=O)O.c1ccc2nc(N3CCNCC3)ccc2c1 [Quipazine Dimaleate, Quipazine Maleate]; 0%
7) [H-].[Li+] [Lithium hydride]; 0%
8) O=c1ccc2ccccc2o1; 0%

Exercise: Give measured LPS % cell toxicity for CCN(CC)C(=O)c1cccc(C)c1 [Deet, Diethyltoluamide] (primary rat microglia).
Key: 0%

Exercise: GET LPS % cell toxicity | system: primary rat microglia | item: CC12CCC(CC1=O)C2(C)C (centres unmarked)
Key: 0%

Exercise: Give LPS % cell toxicity for "CO[C@@]12[C@H](COC(N)=O)C3=C(C(=O)C(C)=C(N)C3=O)N1C[C@@H]1N[C@@H]12" tested on primary rat microglia.
Key: 49%
